Here the recorded TGI is given for each entry.
Test system: DMS 114 small cell lung
Experiment: NCI tumour cell line growth inhibition, 48 h

>  <Compound>
OC1C2C=CCC1CCC2 (stereo unspecified)

>  <Modifier>
>

>  <TGI / µM>
100

$$$$
>  <Compound>
O=S(Cc1cc2c(cc1Br)OCO2)c1ccccc1 (stereo unspecified)

>  <Modifier>
=

>  <TGI / µM>
61.8

$$$$
>  <Compound>
CCC[CH2][Sn]1([CH2]CCC)[O]C(=O)c2cc(C)ccc2[O]1

>  <Modifier>
=

>  <TGI / µM>
0.771

$$$$
>  <Compound>
CCOC(=O)c1c(C(F)(F)F)oc2c1ccc1nc3nonc3nc12

>  <Modifier>
=

>  <TGI / µM>
55.9

$$$$
>  <Compound>
COC1=CC(=O)c2ccccc2C1(C)C1=NC(C)(C)CO1 (stereo unspecified)

>  <Modifier>
>

>  <TGI / µM>
100

$$$$
>  <Compound>
CCOC(=O)C1(Cc2ccc3ccccc3c2)CCCCCN1 (stereo unspecified)

>  <Modifier>
=

>  <TGI / µM>
87.4

$$$$
>  <Compound>
O=C(/N=C/c1c(O)c2ccccc2oc1=O)NC1CCCCC1

>  <Modifier>
>

>  <TGI / µM>
100

$$$$
>  <Compound>
Nn1c(N=Nc2c(O)[nH]c3ccccc23)n[nH]c1=S

>  <Modifier>
>

>  <TGI / µM>
100

$$$$
>  <Compound>
FC(F)(F)C1=NC(=NNc2nnc(-c3ccccc3)c(-c3ccccc3)n2)N=C(C(F)(F)F)C1

>  <Modifier>
=

>  <TGI / µM>
28.2

$$$$
>  <Compound>
COc1ccc(C2S/C(=C\c3cccc(O)c3)C(=O)N2NC(=O)Cc2ccccc2)cc1 (stereo unspecified)

>  <Modifier>
>

>  <TGI / µM>
100

$$$$
>  <Compound>
COC(=O)/C(=N\O)C(C(=O)C=C(C)C)C(=O)C(=O)Nc1ccccc1C (stereo unspecified)

>  <Modifier>
>

>  <TGI / µM>
100

$$$$
